FYI, the data here is from ChEMBL document CHEMBL1140107.

# assayRemarks: Aqueous solubility of the compound
# setupConditions: aqueous medium (not further specified)
assayEndpoint: solubility (mg/mL)
One number for each entry, in mg/mL.

Task: Sample `CCCN(CC[C@H]1CC[C@H](NC(=O)c2ccc3ccccc3c2)CC1)[C@H]1CCc2nc(N)sc2C1.Cl.Cl` — what was its solubility?
Result: 100

* * *

# measuredTarget: D(1A) dopamine receptor (Rattus norvegicus, UniProt P18901)
# Sequence (P18901 whole entry): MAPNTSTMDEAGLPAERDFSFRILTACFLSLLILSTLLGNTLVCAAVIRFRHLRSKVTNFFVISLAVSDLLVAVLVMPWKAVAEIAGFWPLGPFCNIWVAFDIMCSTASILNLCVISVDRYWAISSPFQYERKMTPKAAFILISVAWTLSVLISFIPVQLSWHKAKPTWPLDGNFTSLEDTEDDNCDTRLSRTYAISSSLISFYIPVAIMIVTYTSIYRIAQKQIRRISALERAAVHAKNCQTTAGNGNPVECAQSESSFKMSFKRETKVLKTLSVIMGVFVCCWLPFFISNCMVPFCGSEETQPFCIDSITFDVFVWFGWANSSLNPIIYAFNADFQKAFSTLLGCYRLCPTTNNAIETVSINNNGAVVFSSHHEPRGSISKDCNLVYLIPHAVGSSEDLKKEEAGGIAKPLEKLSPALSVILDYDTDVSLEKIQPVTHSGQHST
# assayRemarks: Displacement of [3H]SCH23390 from D1-like receptor in Sprague-Dawley rat striatum
assayEndpoint: Ki

Please review the entries below; each comes with its answer.
{"compound": "COc1ccc2c(c1)CC[C@@H]1CN(CC[C@H]3CC[C@H](NC(=O)c4ccc5ccccc5c4)CC3)CCN21", "Ki": "> 50 µM"}
{"compound": "CCCCN(CC[C@H]1CC[C@H](NC(=O)c2ccc3ccccc3c2)CC1)[C@H]1CCc2nc(N)sc2C1", "Ki": "5.4 µM"}

For every listed record, write down its Ki.
1. Nc1nc2c(s1)C[C@@H](NCC[C@H]1CC[C@H](NC(=O)c3ccc4ccccc4c3)CC1)CC2
2. CC(C)CCN(CC[C@H]1CC[C@H](NC(=O)c2ccc3ccccc3c2)CC1)[C@H]1CCc2nc(N)sc2C1
3. CCCN[C@H]1CCc2nc(N)sc2C1 [PRAMIPEXOLE]

Result:
1: 64 µM; 2: 13 µM; 3: > 100 µM
